measureName: glass transition temperature (°C)

Some entries whose results are on file:
compound="*CCCOC(=O)CCCC(=O)O* (repeat unit)" valuereported=-33.00
compound="*c1ccc(CC(=O)Nc2ccc(Cc3ccc(NC(=O)Cc4ccc(-c5sc(*)c(-c6ccccc6)c5-c5ccccc5)cc4)cc3)cc2)cc1 (repeat unit)" valuereported=227.00
compound="*CC(c1ccccc1)C1C(=O)N(CCCN(CC)c2ccc(/N=N/c3ccc([N+](=O)[O-])cc3)c(C)c2)C(=O)C1* (repeat unit)" valuereported=137.00
compound="*c1ccc(-c2cc(-c3ccc(-c4ccccc4)cc3)cc(-c3ccc(N4C(=O)c5ccc(NC(=O)Nc6cccc(NC(=O)Nc7ccc8c(c7)C(=O)N(*)C8=O)n6)cc5C4=O)cc3)n2)cc1 (repeat unit)" valuereported=248.00
compound="*Oc1ccc(C2(c3ccc(Oc4ccc(C(=O)Oc5ccc(C(C)(C)c6ccc(OC(=O)c7ccc(*)cc7)cc6)cc5)cc4)cc3)CCC(C(C)(C)C)CC2)cc1 (repeat unit)" valuereported=144.00
compound="*C(=O)c1ccc2c(c1)C(=O)N(c1ccc(C(c3ccccc3)c3ccc(N4C(=O)c5ccc(*)cc5C4=O)cc3)cc1)C2=O (repeat unit)" valuereported=282.00
compound="*Oc1ccc(S(=O)(=O)c2ccc(Oc3ccc(C(=O)c4cc(C(=O)c5ccc(*)cc5)cc(C(C)(C)C)c4)cc3)cc2)cc1 (repeat unit)" valuereported=198.00
compound="*c1ccc(Oc2ccc(Sc3ccc(Oc4ccc(-c5ccc(*)s5)cc4C(F)(F)F)cc3)cc2)c(C(F)(F)F)c1 (repeat unit)" valuereported=142.00
compound="*CC(*)CCc1ccccc1 (repeat unit)" valuereported=10.00
compound="*c1nc2cc(S(=O)(=O)c3ccc4oc(C5CCC(*)CC5)nc4c3)ccc2o1 (repeat unit)" valuereported=296.00

[A] *c1ccc(Oc2ccc(C3(c4ccc(Oc5ccc(N6C(=O)c7ccc(Oc8ccc(C9(c%10ccc(Oc%11ccc%12c(c%11)C(=O)N(*)C%12=O)cc%10)CCCCCCCCCCC9)cc8)cc7C6=O)cc5)cc4)C4CC5CC(C4)CC3C5)cc2)cc1 (repeat unit)
[B] *Oc1cccc(Oc2ccc3c(=O)n4c5cc(-c6ccc7c(c6)nc6c8ccc(*)c9cccc(c(=O)n76)c98)ccc5nc4c4cccc2c34)c1 (repeat unit)
[C] *C(=O)c1ccc(C(=O)c2ccc(Oc3ccc(C(C)(C)c4ccc(Oc5ccc(*)s5)cc4)cc3)s2)cc1 (repeat unit)
### Prompt Sort the compounds on glass transition temperature; start with the lowest figure. Sort and list the labels as requested.
### Response C, A, B
(C: 154.00 °C, A: 262.00 °C, B: 396.50 °C)

====

measureName: glass transition temperature (°C)

Some entries whose results are on file:
compound="*CCCS(=O)(=O)CCCCS(=O)(=O)CCCOC(=O)O* (repeat unit)" measurename="glass transition temperature" valuereported=43.00
compound="*CCCCCCCNC(=O)CCCCCCCCCCCCCCCCCCC(=O)N* (repeat unit)" measurename="glass transition temperature" valuereported=46.00
compound="*c1ccc(C(=O)c2ccc(Oc3ccc(-c4nn(*)c(=O)c5ccccc45)cc3Br)cc2)cc1 (repeat unit)" measurename="glass transition temperature" valuereported=254.00
compound="*OC(=O)Cc1ccc(CC(*)=O)cc1 (repeat unit)" measurename="glass transition temperature" valuereported=65.00
compound="*Oc1cccc(Oc2cccc(NC(=O)c3cccc(Oc4cccc(Oc5cccc(C(=O)Nc6cccc(*)c6)c5)c4)c3)c2)c1 (repeat unit)" measurename="glass transition temperature" valuereported=137.50
compound="*Oc1ccc(CC(NC(=O)CCc2ccc(OC(*)=O)cc2)C(=O)OCC)cc1 (repeat unit)" measurename="glass transition temperature" valuereported=96.00
compound="*CCCCCOC(=O)c1ccccc1C(=O)[O][Cd][O]C(=O)c1ccccc1C(=O)OCCCCCOC(=O)Nc1ccc(C)c(NC(=O)O*)c1 (repeat unit)" measurename="glass transition temperature" valuereported=2.30

[P] *c1ccc(Oc2ccc(-c3nc4ccc(-c5ccc6nc(*)c(-c7ccccc7)nc6c5)cc4nc3-c3ccccc3)cc2)cc1 (repeat unit)
[Q] *CCOCCOc1cccc(NC(=O)c2ccc(C(=O)Nc3cccc(O*)c3)cc2)c1 (repeat unit)
[R] *Oc1ccc(CC(NC(=O)CCc2ccc(OC(=O)CCCC(*)=O)cc2)C(=O)OC)cc1 (repeat unit)
[S] *Oc1ccc(CC(NC(=O)CCc2ccc(OC(=O)CCCCCCC(*)=O)cc2)C(=O)OCc2ccccc2)cc1 (repeat unit)
### Prompt Arrange the 4 compounds from largest to smallest glass transition temperature. Sort and list the labels as requested.
### Response P, Q, R, S

====

measureName: glass transition temperature (°C)

Some entries whose results are on file:
compound="*OP(=O)(Oc1ccc(Br)cc1)Oc1ccc(S(=O)(=O)c2ccc(*)cc2)cc1 (repeat unit)" measurename="glass transition temperature" unittext=°C valuereported=89.00
compound="*O[Si](C)(C)O[Si](C)(C)O[Si](C)(C)C#Cc1ccc(C#C[Si](*)(C)C)cc1 (repeat unit)" measurename="glass transition temperature" unittext=°C valuereported=96.00

[1] *c1ccc(Oc2ccc(Oc3ccc(Oc4ccc(-n5c(=O)c6cc7c(=O)n(*)c(=O)c7cc6c5=O)cc4)cc3)cc2)cc1 (repeat unit)
[2] *O[Si](*)(C)CCCCCCOc1ccc(C(=O)Oc2ccc(C#N)cc2)cc1 (repeat unit)
### Prompt Just curious, which one has the larger glass transition temperature reading, 1 or 2 ? Pick one and reply with its label.
### Response 1
(1: 295.00 °C, 2: 8.00 °C)

====

measureName: glass transition temperature (°C)

compound="*c1ccc(C(=O)c2ccc(Oc3ccc(-c4nn(*)c(=O)c5ccccc45)c(F)c3)cc2)cc1 (repeat unit)" valuereported=253.00
compound="*CCCCCCCCCNC(=O)N* (repeat unit)" valuereported=130.00
compound="*c1ccc(C(=O)Oc2ccc(OC(=O)c3ccc(N4C(=O)CC(SCCOCCSC5CC(=O)N(*)C5=O)C4=O)cc3)cc2)cc1 (repeat unit)" valuereported=166.00

[P] *CCOC(=O)c1ccc2ccc(C(=O)O*)cc2c1 (repeat unit)
[Q] *CCCCCCCCCCCOC(=O)c1ccc(-c2ccc(C(=O)O*)cc2)cc1 (repeat unit)
### Prompt Just curious, which one has the larger glass transition temperature reading, P or Q ? Pick one and reply with its label.
### Response P

[a] *Cc1ccc(C(C)(C)c2ccc(CN3C(=O)c4ccc(Oc5ccc6c(c5)C(=O)N(*)C6=O)cc4C3=O)o2)o1 (repeat unit)
[b] *CCCCCCCCOc1ccc(C(C)(C)c2ccc(O*)cc2)cc1 (repeat unit)
### Prompt Of the pair a and b , name the member with the lesser recorded glass transition temperature. Pick one and reply with its label.
### Response b

====

The reader will find reported glass transition temperature values listed item by item below.
Please give a number only; it is taken to be in °C.

Some entries whose results are on file:
compound="*c1nc(-c2ccccc2)nc(N(CCCCCCCCCCN(*)c2ccccc2)c2ccccc2)n1 (repeat unit)" valuereported=62.00
compound="*CC(*)C(=O)OC(OCC)C(F)(F)F (repeat unit)" valuereported=5.00
compound="*CCCCCCCCCCSS* (repeat unit)" valuereported=-65.00

### Prompt Endpoint output: glass transition temperature of *CCCCCCNC(=O)C(=O)N* (repeat unit) . Value?
### Response 250.00

### Prompt Endpoint output: glass transition temperature of *c1cccc(P(=O)(c2cccc(-n3c(=O)c4cc5c(=O)n(*)c(=O)c5c(-c5ccc(C(F)(F)F)cc5)c4c3=O)c2)c2cc(C(F)(F)F)cc(C(F)(F)F)c2)c1 (repeat unit) . Value?
### Response 292.00

### Prompt Endpoint output: glass transition temperature of *Oc1cccc(Oc2ccc(C(=O)c3ccc(P(=O)(c4ccccc4)c4ccc(C(=O)c5ccc(*)cc5)cc4)cc3)cc2)c1 (repeat unit) . Value?
### Response 201.00

====

measureName: glass transition temperature (°C)

Some entries whose results are on file:
compound="*c1ccc2c(c1)C(=O)N(c1cccc(C(=O)Nc3ccc(Oc4cccc(Oc5ccc(NC(=O)c6cccc(N7C(=O)c8ccc(C(*)(C(F)(F)F)C(F)(F)F)cc8C7=O)c6)cc5)c4)cc3)c1)C2=O (repeat unit)" measurename="glass transition temperature" unittext=°C valuereported=264.00
compound="*CC(*)c1ccc(C(=O)N(C)C)cc1 (repeat unit)" measurename="glass transition temperature" unittext=°C valuereported=125.00
compound="*CCCCOc1ccc(-c2ccc(O*)c3ccccc23)c2ccccc12 (repeat unit)" measurename="glass transition temperature" unittext=°C valuereported=130.00

[A] *OC(=O)Nc1ccc(C)c(NC(=O)OC2CCN(c3ccc(/C=C/C4=CC(=C(C#N)C#N)C=C(/C=C/c5ccc(N6CCC(*)CC6)s5)O4)s3)CC2)c1 (repeat unit)
[B] *O[Si](C)(C)CCC/N=C1C=C/C(=N/CCC[Si](*)(C)C)c2c(O)ccc(O)c2\1 (repeat unit)
[C] *c1ccc(/C=N/c2ccc(C(c3ccccc3)c3ccc(/N=C/c4ccc(-c5ccc(*)s5)cc4)cc3)cc2)cc1 (repeat unit)
[D] *CC(*)(C)C(=O)OCCCCCCCCCCOc1ccc(C(=O)Oc2ccc(C(=O)/C=C/c3c(C)c4ccccc4n3CCCC)cc2)cc1 (repeat unit)
### Prompt Arrange the 4 compounds from largest to smallest glass transition temperature. Sort and list the labels as requested.
### Response A, C, D, B
(A: 212.00 °C, C: 129.00 °C, D: 57.00 °C, B: 32.90 °C)

[a] *Oc1c(OC)cc(-c2cc(OC)c(OC(=O)c3cccc(C(*)=O)c3)c(OC)c2)cc1OC (repeat unit)
[b] *Oc1ccc(/C=C/C(=O)c2ccc(Oc3ccc(C(C)(C)c4ccc(*)c(C)c4)cc3C)cc2)cc1 (repeat unit)
### Prompt Just curious, which one has the larger glass transition temperature reading, a or b ? Pick one and reply with its label.
### Response a
(a: 252.00 °C, b: 157.00 °C)
